Assay: chemical genetic growth profiling, strain panel (AID 1159580);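 note: tested at 20 µM; growth read once vehicle control cultures reached saturation at 30 °C; 1 = growth at the plate median or of vehicle wells; lower values mean less growth of the strain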
Conditions: S. cerevisiae deletion strains, growth OD, locus YMR263W, strain SAP30, active compounds read low
In all, about 5,500 compounds went through this assay and about 2,000 (36%) were called active. Not shown: some 18% with an inconclusive outcome. The list shows a part of the results.
Listed compounds paired with reported normalized growth
// print number alone

CCC[C@@H]1C[C@@H](C(=O)N[C@H]([C@H]2O[C@H](SC)[C@H](O)[C@@H](O)[C@H]2O)[C@H](C)O)N(C)C1 = 0.996
N[C@@H](C(=O)N[C@@H]1C(=O)N2C(C(=O)O)=C(Cl)CS[C@H]12)c1ccccc1 = 1.01
O=[N+]([O-])c1ccc(NCCCCCO)nc1 = 0.999
O=C(CSCc1c(Cl)cccc1Cl)NNC(=S)NC1CC2C=CC1C2 (stereo unspecified) = 0.944
O=C(OCCNc1ccc([N+](=O)[O-])cn1)c1ccc([N+](=O)[O-])o1 = 0.827

Q: Let me know recorded normalized growth for OC[C@H]1O[C@@H](n2cnc3c(NC4CCCCC4)ncnc32)[C@H](O)[C@@H]1O , thanks.
Result: 1.01

Q: Let me know recorded normalized growth for Cc1cc(S(=O)(=O)NC(Cc2ccc([N+](=O)[O-])cc2)C(=O)O)c(Cl)cc1Cl (stereo unspecified) , thanks.
Result: 1

Q: Let me know recorded normalized growth for CCCN1CCCC2Cc3[nH]ncc3CC21 (stereo unspecified) , thanks.
Result: 0.997

Q: Let me know recorded normalized growth for COc1ccc(/C=C2/C(=O)N(c3cccc(Cl)c3)N=C2C)cc1 , thanks.
Result: 0.989

Q: Let me know recorded normalized growth for O=C1c2ccccc2C(=O)c2ccccc21 , thanks.
Result: 0.97

Q: Let me know recorded normalized growth for CC(=O)O[C@@H]1C2CC[C@@H]3C1(C[C@@H](O)[C@@]1(O)[C@@H](C[C@H](O)C1(C)C)[C@]3(C)O)C[C@@]2(C)O (stereo partly specified) , thanks.
Result: 0.991

Q: Let me know recorded normalized growth for O=C(O)c1ccccc1Sc1c(C(=O)O)cc([N+](=O)[O-])cc1[N+](=O)[O-] , thanks.
Result: 0.994

Q: Let me know recorded normalized growth for ClC1C(Cl)C(Cl)C(Cl)C(Cl)C1Cl (stereo unspecified) , thanks.
Result: 0.955

Q: Let me know recorded normalized growth for O=C(NNC(=S)Nc1cccc(Cl)c1)c1cccnc1 , thanks.
Result: 0.949

Q: Let me know recorded normalized growth for O=[N+]([O-])c1cc(Cl)c(Sc2ccccc2)cc1Sc1ccccc1 , thanks.
Result: 1.01

Q: Let me know recorded normalized growth for CC(=O)c1ccc(Sc2ccccn2)c([N+](=O)[O-])c1 , thanks.
Result: 0.993

Q: Let me know recorded normalized growth for COC[C@H]1OC(=O)c2coc3c2[C@@]1(C)C1=C(C3=O)C2CCC(=O)[C@@]2(C)C[C@H]1OC(C)=O (stereo partly specified) , thanks.
Result: 0.0519

The reported numbers originate from PubChem BioAssay AID1159580.
